Test: True partition coefficient corrected for ionization was determined
Assay type: physicochemical
Details: octanol/water
VALUE KIND: pKa

Lookup: Give the reported pKa for this molecule. CN(C)CCc1c[nH]c2cccc(O)c12 [PSILOCIN]
Found: 3.3

// data source = ChEMBL document CHEMBL1121785
